test system: SF-295; experiment: Anticancer activity against human SF295 cells after 48 hrs; format: functional; settings: SF-295, 48 h
For each record, write down the corresponding TGI.
Give bare numbers, in µM.

Example results:
1. Cc1cc(O)c(C2=NN(c3ccc(S(N)(=O)=O)cc3)C(c3ccccc3Cl)C2)cc1Cl (centres undefined) : 3.18
2. Cc1cc(O)c(C2=NN(c3ccc(S(N)(=O)=O)cc3)C(/C=C/c3ccccc3)C2)cc1Cl (centres undefined) : 11.9
3. COc1ccc(C2CC(c3cc(Cl)c(C)cc3O)=NN2c2ccc(S(N)(=O)=O)cc2)cc1OC (centres undefined) : 6.24

Continue with the molecule presented below.
Inquiry: Which TGI reading was recorded for the molecule Cc1cc(O)c(C2=NN(c3ccc(S(N)(=O)=O)cc3)C(c3ccccc3O)C2)cc1Cl (centres undefined) ?
Reply text: 3.67

###

system: MDA-MB-435; assay: Anticancer activity against human MDA-MB-435 cells after 48 hrs; assay type: functional; details: MDA-MB-435, 48 h, read-out: LC50 (the source's name)
Could you please report measured CC50 for the items listed next?
Answers are plain numbers, in µM.

Field: example entries. Status: answers known.
1. Cc1cc(O)c(C2=NN(c3ccc(S(N)(=O)=O)cc3)C(/C=C/c3ccccc3)C2)cc1Cl (centres undefined) : 59.5
2. Cc1cc(O)c(C2=NN(c3ccc(S(N)(=O)=O)cc3)C(c3ccccc3Cl)C2)cc1Cl (centres undefined) : 8.32

Now examine the next entry.
Inquiry: Form: Entry = Cc1cc(O)c(C2=NN(c3ccc(S(N)(=O)=O)cc3)C(c3ccccc3O)C2)cc1Cl (centres undefined) | System = MDA-MB-435 | CC50 = ____
Reply text: 9.88

###

test system: HT-29; assay: Anticancer activity against human HT-29 cells after 48 hrs; type: functional; settings: HT-29, 48 h
measurement-kind: GI50 (µM)
Answers are plain numbers, in µM.

Field: example entries. Status: answers known.
1) Cc1cc(O)c(C2=NN(c3ccc(S(N)(=O)=O)cc3)C(c3ccccc3Cl)C2)cc1Cl (centres undefined) : 1.92
2) Cc1cc(O)c(C2=NN(c3ccc(S(N)(=O)=O)cc3)C(/C=C/c3ccccc3)C2)cc1Cl (centres undefined) : 3.73
3) Cc1cc(O)c(C2=NN(c3ccc(S(N)(=O)=O)cc3)C(c3ccccc3O)C2)cc1Cl (centres undefined) : 2.37

Inquiry: Fill in: GI50 of COc1ccc(C2CC(c3cc(Cl)c(C)cc3O)=NN2c2ccc(S(N)(=O)=O)cc2)cc1OC (centres undefined) is ___
Reply text: 2.24

###

test system: SF-539; assay: Anticancer activity against human SF539 cells after 48 hrs; assay type: functional; conditions: SF-539, 48 h
measurement-kind: LC50 (concentration causing net 50% loss of initial cells) (µM)
Numbers only, in µM.

Field: example entries. Status: answers known.
1) Cc1cc(O)c(C2=NN(c3ccc(S(N)(=O)=O)cc3)C(/C=C/c3ccccc3)C2)cc1Cl (centres undefined) : 37.5
2) COc1ccc(C2CC(c3cc(Cl)c(C)cc3O)=NN2c2ccc(S(N)(=O)=O)cc2)cc1OC (centres undefined) : 12
3) Cc1cc(O)c(C2=NN(c3ccc(S(N)(=O)=O)cc3)C(c3ccccc3O)C2)cc1Cl (centres undefined) : 5.69

Inquiry: Kindly state the measured LC50 (concentration causing net 50% loss of initial cells) obtained for Cc1cc(O)c(C2=NN(c3ccc(S(N)(=O)=O)cc3)C(c3ccccc3Cl)C2)cc1Cl (centres undefined) with SF-539.
Reply text: 5.9
